Cited source for all entries: ChEMBL document CHEMBL4152297

Test system: HEK293
Assay: Displacement of [125I]-CX3CL1 from HCMV US28 expressed in HEK293 cells at 10 uM after 3 hrs by gamma counting method relative to control
Format: cell-based
Details: Human betaherpesvirus 5
Active and inactive are the calls of the source. The calls are words filed in the database; no cut-off is given here.
measured parameter: inhibition

Cc1nc2ccccc2n1CC1CCN(CC(=O)Nc2ccc(F)cc2F)CC1 = inactive
Cc1sc2nc(CN3CCN(CC(=O)NC4CCC(C)CC4)CC3)[nH]c(=O)c2c1C (centres undefined) = 32%
N#CC(CCCN1CCC(O)(c2ccc(Cl)cc2)CC1)(c1ccccc1)c1ccccc1 = inactive
Cc1nc2ccccc2n1CC1CCN(CC(=O)Nc2ccc(OC(F)(F)F)cc2)CC1 = 32%
